// provenance: paper PMC10910531

Assay: CRE method A: lactone/lactam formation, T3P + DIPEA, internal nucleophile (pyridine/amine) cascade
Conditions: the molecule shown is the open-chain precursor; 10-membered ring; CHCl3; 50.0 mM; 22.0 °C; 0.5 h
The reader will find reported ring closure, isolated yield values listed item by item below.
Readout Type: ring closure, isolated yield (%)

Molecule | Units Symbol | Endpoint Result
CC(O)Cc1cncc(-c2ccccc2CC(=O)O)n1 (stereo not shown) | % | 90
C=CCNC(C)Cc1cccc(-c2ccccc2CC(=O)O)n1 (stereo not shown) | % | 75
CC(Cc1cccc(-c2ccccc2CC(=O)O)n1)Nc1ccccc1 (stereo not shown) [S77 -> 65 (quantitative)] | % | 100
CC(O)Cc1cccc(-c2ccccc2CC(=O)O)n1 (stereo not shown) | % | 90

* * *

Assay: CRE method C: cyclic carbamate/urea formation with triphosgene + Et3N
Details: the molecule shown is the open-chain precursor; 10-membered ring; CH2Cl2; 100.0 mM; 22.0 °C; 18.0 h
The reader will find reported ring closure, isolated yield values listed item by item below.

Compound | ring closure, isolated yield
CN(C(=O)Cl)c1ccccc1-c1cccc(CCO)n1 | 59%
CN(C(=O)Cl)c1ccccc1-c1cccc(CC(O)c2ccccc2)n1 (stereo not shown) | 34%
O=C(Cl)N(CCCN(CCCO)c1ccccc1)c1ccccc1 | 78%
O=C(Cl)N(CCc1cccc(CCNc2ccccc2)n1)c1ccccc1 | 49%
